# TARGET OR TEST SYSTEM: T1, AAV9 (adeno-associated virus serotype 9)
# T1 construct: also called adeno-associated virus serotype 9
# PROTOCOL DESCRIPTION: SPR, AAV on CM5 chip;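 further: surface plasmon resonance with AAV amine-coupled to the chip as ligand, nanobodies injected as analyte over a concentration series, rate constants and affinity fitted from binding curves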
QUANTITY: koff (s⁻¹)
Please give a number only; it is taken to be in s⁻¹.

Ask: What koff value was documented for this binder, A4-114 (VHH) VHH: VQLQESGGGLVQTGGSLRLSCVASGSIFSINTVGWYRQAPGKQRELVATVTRAGSTWYAGSVKGRFTISRDNTKNTIYLQMNSLRPEDTAVYYCHVDELRQSTWTTSNLWGQGTQVTVSS ?
Reply: 0.00123

Ask: Input A4-111 (VHH) VHH: VQLQESGGGLAQPGGSLRLSCAASGSNFSINTMGWYRQRAGKQREFVATITRGGSTNYGDSVKGRFTISRDNAKTTVYLQMNSLRPEDTAVYYCHLDEVRESTWTTSNLWGQGTQVTVSS
Reply: 0.00025

Ask: Input A4-107 (VHH) VHH: VQLQESGGGLVQPGGSLRLSCIASGSGFSINTVGWYRQAPAKQRELVATLTRGGSTNYADSVKGRFTISRDNPKNTVYLQMNSLRPEDTAVYYCHVDEVRQSSWTTSNIWGQGTQVTVSS
Reply: 0.00356

Ask: Input A4-105 (VHH) VHH: VQLQESGGGLVQPGGSLRLSCAASGSIFSLNAMGWYRQAPGKQRELVATITSGGSTNYADSVKGRFTISRDNAKNTAYLQMNNLQPEDTAVYYCHVDEVRESIWTTSNLWGQGTQVTVSS
Reply: 0.00189
